- Tested on: corn earworm (Helicoverpa zea [Boddie])
- assay_comment: Cotton leaf-disc dip test against corn earworm
- Assay type: in vivo
- setup_conditions: cyano-pyrethroid 10.0 ppm alone (bifenthrin 0.0 ppm); technical; 96 h
measured_quantity: % Mortality Corn Earworm (%)
Quick reminder: number only, in %, skip the unit.

// worked examples, % Mortality Corn Earworm included
compound	experimental_target	measured_quantity	measurement
CC1(C)C(C=C(Cl)Cl)C1C(=O)OC(C#N)c1ccc(F)c(Oc2ccccc2)c1 (racemic) [cyfluthrin]	corn earworm (Helicoverpa zea [Boddie])	% Mortality Corn Earworm	100
CC1(C)C(C=C(Cl)Cl)C1C(=O)OC(C#N)c1cccc(Oc2ccccc2)c1 (racemic) [alpha-cypermethrin]	corn earworm (Helicoverpa zea [Boddie])	% Mortality Corn Earworm	100
CC1(C)[C@H](C(=O)O[C@H](C#N)c2cccc(Oc3ccccc3)c2)[C@@H]1C=C(Br)Br [delta-methrin]	corn earworm (Helicoverpa zea [Boddie])	% Mortality Corn Earworm	100
CC1(C)[C@H](C(=O)O[C@H](C#N)c2cccc(Oc3ccccc3)c2)[C@@H]1/C=C(\Cl)C(F)(F)F (racemic) [lambda-cyhalothrin]	corn earworm (Helicoverpa zea [Boddie])	% Mortality Corn Earworm	100

--- query ---
Query (compound): CC(C)[C@H](C(=O)O[C@H](C#N)c1cccc(Oc2ccccc2)c1)c1ccc(Cl)cc1 [esfenvalerate] ; field requested: % Mortality Corn Earworm
50
